Target Of Assay: C/EBPβ bZIP domain (mouse, UniProt P28033 221-296)
Sequence (P28033 221-296): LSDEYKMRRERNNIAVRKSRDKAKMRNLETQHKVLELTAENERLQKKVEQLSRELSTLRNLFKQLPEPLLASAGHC
Assay Comment: fluorescence polarization

[
  {
    "Binder": "FP_CREBmeth (half-CRE•C/EBP Il36A, methylated) (dsDNA, mC at strand 1 position 8 and strand 2 position 7 (CpG, both strands)) DNA 1: CATCTTACGTCACCT DNA 2: AGGTGACGTAAGATG",
    "Kd (nM)": 100
  }
]
